- experimental_target: Brd4 (Homo sapiens, UniProt O60885)
- assay_name: Test Example 3: HeLa cells, Western blot Brd4/actin (Testing Method C)
- Type: cell-based
- Parameters: endogenous in cells; host or cells: HeLa
- assay_setup: BRD4, 1 uM, 24 hours, 1 or less = degradation promoted
- Procedure: Test Example 3: Evaluation Using HeLa Cell (Testing Method C) HeLa cells were inoculated to Dulbecco's Modified Eagle Medium (DMEM) and cultured for 24 hours. A test compound (specifically, compounds of Examples 47 to 52, 59 and 60) was added thereto at the final concentration shown in Table 2, followed by incubation for 24 hours under conditions of 37° C./5% CO2. […] After the electrophoresis, Brd4, FKBP12 or MetAP2 and actin were detected by Western blot. […]
value_type: Activity value (Brd4/actin of drug-treated cells relative to drug-untreated control)

(A) CC(=O)N[C@@H](CSc1nc2c(=O)[nH]c(N)nc2n1Cc1ccc(F)cc1)C(=O)NCCOCCOCCOCCNC(=O)C[C@@H]1N=C(c2ccc(Cl)cc2)c2c(sc(C)c2C)-n2c(C)nnc21
(B) Cc1sc2c(c1C)C(c1ccc(Cl)cc1)=N[C@@H](CC(=O)NCCOCCOCCOCCNC(=O)c1nc3c(=O)[nH]c(N)nc3n1Cc1ccc(F)cc1)c1nnc(C)n1-2
(C) CC(=O)N[C@@H](CSc1nc2c(=O)[nH]c(N)nc2n1Cc1ccc(Cl)cc1)C(=O)NCCOCCOCCOCCNC(=O)C[C@@H]1N=C(c2ccc(Cl)cc2)c2c(sc(C)c2C)-n2c(C)nnc21
Incoming: Sort ascending by Activity value (Brd4/actin of drug-treated cells relative to drug-untreated control). List each label, following the requested order.
Outgoing: C, B, A
(C: 0.2, B: 0.4, A: 0.6)
